# EXPERIMENTAL_PROTOCOL: growth inhibitors of tim10-1 mutant yeast, primary screen, luminescence, uHTS (AID 463190);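 also: mutant grown at 25 °C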
# REPORTED_CONDITIONS: S. cerevisiae tim10-1 ts strain growth, BacTiter-Glo, 24 h; at 20 µM; stronger effect = higher value
About 7,300 (2.2%) of roughly 330,000 compounds were called active. The sample as a whole holds a higher share of actives than the screen did.
Please use the following inhibition ranges when assigning a class: low end = under 20%, middle = from 20% up to 40%, high end = 40% and over

Study these solved cases before continuing.
INSERT INTO measurements (compound, cat) VALUES
  ('COc1ccc(/C(N)=N/OC(=O)CCCc2ccccc2)cc1', 'high end'),
  ('N/C(=N\OC(=O)CCc1ccccc1)c1cccnc1', 'middle'),
  ('COc1cc(C(c2c(NC(=O)c3ccco3)sc(C)c2C)N2CCOCC2)cc(OC)c1OC (stereo unspecified)', 'middle'),
  ('COc1ccc(/C(C)=N/NC(=O)c2ccc3nc[nH]c3c2)cc1', 'high end'),
  ('N/C(=N\OC(=O)N1c2ccccc2Sc2ccccc21)c1ccc(Br)cc1', 'low end'),
  ('O=C(c1ccc(F)cc1)n1c(=S)nc2ccccn21', 'middle'),
  ('COc1ccc(C(=O)/C=C/c2ccc(-c3ccccc3)cc2)cc1CSCC(=O)O', 'high end'),
  ('COCCN(C(=O)C(C)C)c1nnc(-c2ccc(C(C)(C)C)cc2)s1', 'middle');

Which inhibition band matches `COc1ccc(/C=C/C(=O)c2ccc(NS(=O)(=O)c3ccc(C)cc3)cc2)cc1O` ? middle

Which inhibition band matches `CC(=NNC(=O)c1ccc2nc[nH]c2c1)c1ccc(Br)cc1` ? low end

Which inhibition band matches O=C1c2cccnc2C(Nc2ccc(S(=O)(=O)N3CCCCCC3)cc2)N1Cc1ccccc1 (stereo unspecified) ? middle
